Just for reference, PubChem BioAssay (NCI) is where these values come from.

# Tested on: MDA-MB-435
# protocol-text: NCI tumour cell line growth inhibition, 48 h
experimental-readout: TGI

The following compounds have reported results that may help.
c1ccc([P+](c2ccccc2)(c2ccccc2)c2ccc([P+](c3ccccc3)(c3ccccc3)c3ccccc3)cc2)cc1 | > 100 µM
COc1ccc(C=Nc2ccc(-c3nc4ccccc4[nH]3)cc2)cc1OC | > 100 µM
O=C1CSc2nnc(CCCCCCCCc3nnc4n3NC(=O)CS4)n2N1 | > 100 µM

Could you report TGI for every entry in the following list?
1. O=C(Nc1ccccc1O)c1ccc(CNC(=O)c2ccsc2Nc2ccnc(C(F)(F)F)c2)cc1
2. CCCCCCCCCCCCCCCCOCC(Cl)COP(=O)(O)OP(=O)(O)OCC1OC(n2cnc3c(N)ncnc32)C(O)C1O (stereo not given)

6.54 µM
> 100 µM

====

# Test system: HCC-2998 colon
# protocol-text: NCI tumour cell line growth inhibition, 48 h
experimental-readout: GI50

Example entries begin here.
COc1cc2cc(Oc3ccc(NC(=O)c4cccc5c4OCCO5)cc3)c(C)nc2cc1OC | 5.5 µM
O=C(O)C1C(C(=O)O)C2(Cl)C(Cl)=C(Cl)C1(Cl)C2(Cl)Cl.[Cd] (centres undefined) | 22.6 µM
Cc1n(Cc2ccc3ccccc3c2)c(Cl)c(Cl)[n+]1Cc1ccc2ccccc2c1 | 1.66 µM
COC(=O)[C@H](Cc1ccccc1)NC(=O)c1csc([C@@H](C[C@H](C(C)C)N(C)C(=O)[C@@H](NC(=O)[C@H]2CCCN2C)C2CC2)OC(C)=O)n1 | 1.48 µM
Oc1[nH]c2ccccc2c1/C=c1/cc2c(c(-c3ccc(C(F)(F)F)cc3)n1)=Nc1ccccc1-2 | 9.32 µM

Hey, quick one: what's GI50 for each of these?
1. CCCCCCOc1ccc(C(=N)N(CCCC)CCCC)c2ccccc12
2. Cc1ccc(/C=C2\CNC/C(=C\c3ccc(C)cc3)C2=O)cc1
3. C=C(CNCCc1ccc(O)cc1)[C@@H]1CC[C@]2(CO)CC[C@]3(C)[C@H](CC[C@@H]4[C@@]5(C)CCC(N)C(C)(C)[C@@H]5CC[C@]43C)[C@@H]12 (some centres undefined)
4. Cn1cnc([N+](=O)[O-])c1Sc1nc(N)nc2nc[nH]c12
5. CC(C)(CO)N=Cc1ccccc1[O-].CC(C)(CO)N=Cc1ccccc1[O-].[Co+2]
6. CCCn1cnc2c(SCc3ccccc3)nc(N)nc21

1: 1.59 µM; 2: 1.42 µM; 3: 1.66 µM; 4: 3.79 µM; 5: 75.4 µM; 6: > 100 µM

The following compounds each have a reported value; give each one's GI50.
1. COc1ccc2c(c1)nc1n2C(c2ccc(F)cc2)SC1 (centres undefined)
2. COc1cc2nnn3c4ncccc4c(N=O)c3c2cc1OC
3. Fc1cc(-c2nnc3n2N=C(c2ccc(Cl)cc2Cl)CS3)c(Cl)cc1Cl
4. Cc1cc(=O)oc2cc(OCCn3c(C)nn(-c4ccc(Cl)cc4)c3=O)ccc12

1: 18.4 µM; 2: 2.28 µM; 3: 35 µM; 4: 3.59 µM

// for each compound in input: emit GI50
1. NC(=O)c1cc(I)ccc1NC(=O)COc1ccccc1
2. O=c1oc2ccc(F)cc2c(=O)n1-c1ccc(Br)cc1F
3. O=C(CCN1CCCC1)Nc1ccc2c(Nc3ccccc3)c3ccccc3nc2c1
4. O=C(Nc1cc(S(=O)(=O)c2ccc(Cl)cc2)ccc1Cl)c1cc(I)cc(I)c1O

["2.5 µM", "2.9 µM", "0.733 µM", "13.2 µM"]

====

# Test system: CCRF-CEM leukemia
# protocol-text: NCI tumour cell line growth inhibition, 48 h
Assign TGI to each entry below.

Give TGI for each of the items listed below.
1. COc1ccc(C2NCCc3c2[nH]c2ccccc32)cc1 (stereo not given)
2. CNc1ccc(Cl)cc1S(=O)(=O)c1ccccc1[N+](=O)[O-]

["> 100 µM", "> 100 µM"]

====

# Test system: HT29 colon
# protocol-text: NCI tumour cell line growth inhibition, 48 h
experimental-readout: TGI

Answered examples (5):
O=C1C(c2ccccc2)=C(c2ccccc2)[C@H](c2ccccc2)[C@]1(Cc1nnn(-c2ccc([N+](=O)[O-])cc2)c1N1CCOCC1)c1ccccc1 | > 37.5 µM
O=C(O)C1C(C(=O)O)C2(Cl)C(Cl)=C(Cl)C1(Cl)C2(Cl)Cl.[Cd] (centres undefined) | 35.9 µM
Nc1ncc(/C=N/O)c(NCC2(CO)CC(CCc3ccccc3)C2)n1 (centres undefined) | 9.07 µM
CC1=C2C(=O)c3ccccc3C(=O)[C@H]2C[C@@H](N2CCCCCC2=O)O1 | 71.2 µM
CCOC(=O)C[C@@]12CCCNC1(C)CCc1ccccc12 (some centres undefined) | > 100 µM

Would you mind listing TGI for each of the following compounds?
1. COc1ccc(-c2nc3c(c(=O)n2C(C)=O)C(c2ccc(Cl)cc2)c2sc4c(Cl)cccc4c2O3)cc1 (centres undefined)
2. CC(C)=CCC[C@@H](C)c1c2[nH]c3ccccc3sc-2c(C)c(=O)c1=O

1: 1.09 µM; 2: > 27.4 µM

====

# System: HOP-92 NSCLC
# protocol-text: NCI tumour cell line growth inhibition, 48 h
experimental-readout: TGI

Illustrative cases are given below, each with its answer.
Cc1ccc(/C=C2\CN(C)CC3C2=NC(=S)NC3c2ccc(C)cc2)cc1 (centres undefined) | > 31.1 µM
C[N+](C)=c1nc(N2CCOCC2)ss1 | > 100 µM
C[C@@H]1C/C=C\C(=O)O[C@H](/C=C/C#C/C=C/C(C)(C)[C@@H](O)c2cccc(O)c2Br)[C@@H](C)/C=C/[C@H](C)C[C@H](OC(N)=O)C1 | 0.0836 µM

Continue with the molecule presented below.
Data request, read-out TGI, for "COC(=O)[C@H](Cc1ccccc1)NC(=O)c1csc([C@@H](C[C@H](C(C)C)N(C)C(=O)[C@@H](NC(=O)[C@H]2CCCN2C)C2CC2)OC(C)=O)n1"
> 9.56 µM

====

# Tested on: SW-620 colon
# protocol-text: NCI tumour cell line growth inhibition, 48 h
experimental-readout: TGI

NS(=O)(=O)c1ccc(NC(=O)c2cccn3c(=O)c4ccccc4nc23)cc1 | > 100 µM
O=P(O)(O)CN1CCNCCN(CP(=O)(O)O)CCNCC1 | > 100 µM

Hey, can you go through the list below and give me TGI for every item?
1. COc1ccc2c(c1)nc1n2C(c2ccc(F)cc2)SC1 (stereo unspecified)
2. CCCCCCOP(=O)(OCCCCCC)OC(C(=O)OC)C(F)(F)F (stereo unspecified)
3. COc1ccc(C2=C(OC(=O)N(C)C)c3cccn3-c3cc(Cl)ccc3S2)cc1
4. COc1cc([C@H]2c3[nH]c4ccccc4c3C[C@H]3COC(=O)N32)cc(OC)c1O

1. > 100 µM
2. > 100 µM
3. > 10 µM
4. > 70 µM

====

# Test system: HS 578T breast
# protocol-text: NCI tumour cell line growth inhibition, 48 h
experimental-readout: TGI (µM)
One number for each entry, in µM.

CN(C)C/C=C/C(=O)Nc1ccc(C(=O)N2CCC[C@@H](Nc3ncc(Cl)c(-c4c[nH]c5ccccc45)n3)C2)cc1 | 1.45

Alright, here's another compound for you.
Would you mind telling me what TGI value was observed for "C[C@@H]1C/C=C\C(=O)O[C@H](/C=C/C#C/C=C/C(C)(C)[C@@H](O)c2cccc(O)c2Br)[C@@H](C)/C=C/[C@H](C)C[C@H](OC(N)=O)C1" ?
32.3

====

# Tested on: M14 melanoma
# protocol-text: NCI tumour cell line growth inhibition, 48 h
experimental-readout: TGI

Please review the following examples before continuing.
CN(C)C/C=C/C(=O)Nc1ccc(C(=O)N2CCC[C@@H](Nc3ncc(Cl)c(-c4c[nH]c5ccccc45)n3)C2)cc1 | 2.16 µM
COC(=O)[C@H](Cc1ccccc1)NC(=O)c1csc([C@@H](C[C@H](C(C)C)N(C)C(=O)[C@@H](NC(=O)[C@H]2CCCN2C)C2CC2)OC(C)=O)n1 | > 33.3 µM
COc1ccc2[nH]c3c(=O)[nH]ncc3c2c1 | > 100 µM

# context switch: different compound, same TGI
Hi! What's the reported TGI for Cc1cc(=O)[nH]c(NNC(C#N)c2ccc([N+](=O)[O-])cc2)n1 (centres undefined) on M14 melanoma?
> 100 µM

====

# System: NCI-H23 lung
# protocol-text: NCI tumour cell line growth inhibition, 48 h
Consider the following compounds; for each one, report its TGI.

Reference set (3 entries):
COc1cc2cc(Oc3ccc(NC(=O)c4cccc5c4OCCO5)cc3)c(C)nc2cc1OC | > 100 µM
O=C1CSC2(CC(/C=C/c3ccccc3Br)=NN2c2cccc(S(=O)(=O)O)c2)N1c1nc2ccccc2s1 (centres undefined) | > 100 µM
Fc1c[c-]c(-c2ccccn2)c(F)c1.[CH3-].[Pt+2].c1ccc(P(C[PH+](c2ccccc2)c2ccccc2)c2ccccc2)cc1 | 1.99 µM

Name the reported TGI value associated with the compound CCCCCCCCCCCCCCCCOCC(Cl)COP(=O)(O)OP(=O)(O)OCC1OC(n2cnc3c(N)ncnc32)C(O)C1O (centres undefined)
> 100 µM
